assay: Acute oral toxicity in the mouse; details: in vivo, Maus, read-out: akute orale Toxizität
QUANTITY: LD50

Memo: CN(SN(C)C(=O)Oc1cccc2c1OC(C)(C)O2)C(=O)Oc1cccc2c1OC(C)(C)O2 , reported LD50: > 1000 mg/kg

Origin of measurements: patent EP0007398A1
